Experiment: Particle size and polydispersity index of nanoparticle compositions (Zetasizer Nano ZS)
Format: physicochemical
Conditions: Table 20-1; rows without footnote mark
Overview of reported PDI across a group of compounds:
The response must contain the number and no unit.

Examples with answers:
CCCCC/C=C\CCCCCN(CCO)CCN(CCCCCCCCCCCC)CCCCCCCCCCCC | 0.080
CCCCCCCCCCCCN(CCCCCCCCCCCC)CCN(CCO)CCCCCC(=O)OCCCCC | 0.110
CCCCCC=CCC=CCCCCCCCCC(CCCCCCCCC=CCC=CCCCCC)OC(=O)CCCN(C)C (stereo not drawn) [MC3, reference compound] | 0.117
CCCCCCCCCCCCN(CCCCCCCCCCCC)CCN(CCO)CCCCCC | 0.118

// lookup PDI for `CCCCCCCCCN(CCO)CCN(CCCCCCCCC)CCCCCCCCC`
0.225

Try `CCCCCCCCCCCCN(CCO)CCN(CCCCCCCCCCCC)CCCCCC(=O)OCCCCC` next.
0.130

Try `CCCCC/C=C\C/C=C\CCCCCCCCN(CCO)CCN(CCCCCCCCCCCC)CCCCCCCCCCCC` next.
0.171

Try `CCCCC/C=C\C/C=C\CCCCCCCCN(CCO)CCN(CCCCCCCC/C=C\C/C=C\CCCCC)CCCCCCCC/C=C\C/C=C\CCCCC` next.
0.215

Try `CCCCCCCCCN(CCCCCCCCC)CCN(CCO)CCCCCC(=O)OCCCCC` next.
0.220

---

Assay: Particle size and polydispersity index of nanoparticle compositions (Zetasizer Nano ZS)
Assay type: physicochemical
Conditions: Table 1; rows without footnote mark (lipid:DOPE:cholesterol:PEG-DMG 40:20:38.5:1.5, Luc mRNA; MC3 standard formulation)
Method: A Zetasizer Nano ZS (Malvern Instruments Ltd, Malvern, Worcestershire, UK) can be used to determine the particle size, the polydispersity index (PDI) and the zeta potential of the nanoparticle compositions in 1×PBS in determining particle size and 15 mM PBS in determining zeta potential.
MEASUREMENT NAME: Size (nm)
# unit: nm | format: bare number

Examples with answers:
CCCCCCCCCCCCCCN(CCCCCCCCCCCCCC)CCN(CCCCCCCCCCCCCC)CCN1CCN(CCN(CCCCCCCCCCCC)CCCCCC(=O)OCCCCC)CC1 | 97.7
CCCCCCCCCN(CCCCCCCC(=O)OC)CCN(CCCCCCCC(=O)OC)CC(=O)N1CCN(C(=O)CN(CCCCCCCCC)CCCCCCCCC)CC1 | 111.4

Would you kindly look at the next entry?
// lookup Size (nm) for `CCCCCCCC/C=C\CCCCCCCCN(CCCCCCCC/C=C\CCCCCCCC)CCN(CCCCCCCC/C=C\CCCCCCCC)CCN1CCN(CCN(CCCCCCCC/C=C\CCCCCCCC)CCCCCCCC/C=C\CCCCCCCC)CC1`
94.2

---

Assay: Lipid levels in liver and spleen 48 hours after administration
Assay type: in vivo, rats
Details: Sprague-Dawley, rat, intravenous; liver, 48 hours after administration; read-out: Lipid in liver
Overview of reported concentration at 48 h across a group of compounds:
Put your answer as a value accompanied by its unit after it.

Examples with answers:
CCCCCCCCCCCCN(CCCCCCCCCCCC)CCN(CCCCCCCCCCCC)CCN1CCN(CCN(CCCCCCCCCCCC)CCCCCCCCCCCC(=O)OC)CC1 [Compound 15] | 3070 ng/g
CCCCCC=CCC=CCCCCCCCCC(CCCCCCCCC=CCC=CCCCCC)OC(=O)CCCN(C)C (stereo not drawn) [MC3, reference compound] | 21800 ng/g

Would you kindly look at the next entry?
// lookup concentration at 48 h for CCCCCCCCCCCCN(CCCCCCCCCCCC)CCN(CCCCCCCCCCCC)CCN1CCN(CCN(CCCCCCCCCCCC(=O)OC)CCCCCCCCCCCC(=O)OC)CC1 [Compound 16]
597 ng/g

---

Assay: Encapsulation efficiency of RNA (QUANT-IT RIBOGREEN RNA assay)
Format: physicochemical
Details: Table 1; rows without footnote mark
Given measured EE (%), output Y if it is greater than or equal to 90% and N if not.

// known answers, use as guide
CCCCCCCCCN(CCCCCCCC(=O)OC)CCN(CCCCCCCC(=O)OC)CC(=O)N1CCN(C(=O)CN(CCCCCCCCC)CCCCCCCCC)CC1 | N
CCCCC/C=C\CCCCCN(CCCCC/C=C\CCCCC)CCN1CCN(CCN(CCCCCCCCCCCC)CCN(CCCCCCCCCCCC)CCCCCCCCCCCC)CC1 | Y
CCCCCCCC/C=C\CCCCCCCCN(CCCCCCCC/C=C\CCCCCCCC)CCN(CCCCCCCC/C=C\CCCCCCCC)CCN1CCN(CCN(CCCCCCCCCCCC)CCCCCCCCCCCC)CC1 | Y
CCCCCCCCCN(CCCCCCCCC)CCC1CCN(C(=O)CN(CCCCCCCCC)CCN(CCCCCCCCC)CCCCCCCCC)CC1 | Y

Is EE (%) at least 90%? Consider `CCCCCCCCCCCCCCN(CCCCCCCCCCCCCC)CCN(CCCCCCCCCCCCCC)CCN1CCN(CCN(CCCCCCCCC)CCCCCCCCC)CC1`
N

---

Assay: Lipid levels in liver and spleen 48 hours after administration
Type: in vivo, rats
Settings: Sprague-Dawley, rat, intravenous; spleen, 48 hours after administration; read-out: Lipid in spleen
Given measured concentration at 48 h, output label 1 if it is greater than or equal to 2000 ng/g and label 0 if not.

CCCCCCCCCCCCN(CCCCCCCCCCCC)CCN(CCCCCCCCCCCC)CCN1CCN(CCN(CCCCCCCCCCCC(=O)OC)CCCCCCCCCCCC(=O)OC)CC1 | label 0
CCCCCCCCCCCCN(CCCCCCCCCCCC)CCN(CCCCCCCCCCCC)CCN1CCN(CCN(CCCCCC(=O)OCCCCC)CCCCCC(=O)OCCCCC)CC1 | label 0
CCCCCCCCCCCCN(CCCCCCCCCCCC)CCN(CCCCCCCCCCCC)CCN1CCN(CCN(CCCCCCCC)CCCCCCCC)CC1 | label 1
CCCCCCCCCCCCN(CCCCCCCCCCCC)CCN(CCCCCCCCCCCC)CCN1CCN(CCN(CCCCCCCCCCCC)CCCCCC(=O)OCCCCC)CC1 | label 1
CCCCCC=CCC=CCCCCCCCCC(CCCCCCCCC=CCC=CCCCCC)OC(=O)CCCN(C)C (stereo not shown) [MC3, reference compound] | label 1

Is concentration at 48 h at least 2000 ng/g? Consider `CCCCCCCCCCCCN(CCCCCCCCCCCC)CCN(CCCCCCCCCCCC)CCN1CCN(CCN(CCCCCCCCCCCC)CCCCCCCCCCCC(=O)OC)CC1`
label 0

Try `CCCCCCCCCN(CCCCCCCCC)CCN(CCCCCCCCC)CC(=O)N1CCN(C(=O)CN(CCCCCCCCC)CCCCCCCCC)CC1` next.
label 1

---

Tested on: IL-6
Experiment: Cytokine production induced by sample formulations: IL-6
Type: in vivo
Conditions: Table 20-4, formula (20-I); mice, i.v., 0.5 mpk, 6 hours; in pg/mL (unit assumed)
MEASUREMENT NAME: IL-6

CCCCC/C=C\C/C=C\CCCCCCCCN(CCO)CCN(CCCCCCCCCCCC)CCCCCCCCCCCC | 20.6
CCCCCC=CCC=CCCCCCCCCC(CCCCCCCCC=CCC=CCCCCC)OC(=O)CCCN(C)C (stereo not shown) [MC3, reference compound] | 119.5
CCCCC/C=C\C/C=C\CCCCCCCCN(CCO)CCN(CCCCCCCC/C=C\C/C=C\CCCCC)CCCCCCCC/C=C\C/C=C\CCCCC | 311.1
CCCCCCCCCCCCCCN(CCCCCCCCCCCCCC)CCN(CCCO)CCCCCCCCCCCC | 46.9
CCCCCCCCCCCCN(CCO)CCN(CCCCCC(=O)OCCCCC)CCCCCC(=O)OCCCCC | 169.3

// lookup IL-6 for `CCCCCCCCCCCCN(CCO)CCN(CCCCCCCCCCCC)CCCCCC(=O)OCCCCC`
118.5

Try `CCCCCCCCCCCCN(CCCCCCCCCCCC)CCN(CCO)CCCCCC(=O)OCCCCC` next.
105.8

---

Experiment: pKa of nanoparticle compositions
Assay type: physicochemical
Conditions: Table 5; hEPO mRNA; 40:20:38.5:1.5 Lipid:DOPE:Chol:PEG-DMG
MEASUREMENT NAME: pKa
The response must contain the number and no unit.

// lookup pKa for CCCCCCCCCCCCN(CCCCCCCCCCCC)CCN(CCCCCCCCCCCC)CCN1CCN(CCN(CCCCCCCCCCCC)CCCCCCCCCCCC(=O)OC)CC1 [Compound 15]
6.323

Try CCCCCCCCCCCCN(CCCCCCCCCCCC)CCN(CCCCCCCCCCCC)CCN1CCN(CCN(CCCCCCCCC)CCCCCCCCC)CC1 [Compound 23] next.
6.070

Try CCCCCCCCCCCCN(CCCCCCCCCCCC)CCN(CCCCCCCCCCCC)CCN1CCN(CCN(CCCCCC(=O)OCCCCC)CCCCCC(=O)OCCCCC)CC1 [Compound 14] next.
6.308

Try CCCCCCCCCCCCN(CCCCCCCCCCCC)CCN(CCCCCCCCCCCC)CCN1CCN(CCN(CCCCCCCCCCCC(=O)OC)CCCCCCCCCCCC(=O)OC)CC1 [Compound 16] next.
6.282

Try CCCCCCCCCCCCN(CCCCCCCCCCCC)CCN(CCCCCCCCCCCC)CCN1CCN(CCN(CCCCCCCC)CCCCCCCC)CC1 [Compound 22] next.
6.153

Try CCCCCCCCCCCCN(CCCCCCCCCCCC)CCN(CCCCCCCCCCCC)CCN1CCN(CCN(CCCCCCCCCCCC)CCCCCC(=O)OCCCCC)CC1 [Compound 12] next.
5.444
